assay: Toxicity liver stage against HepG2, at 10uM; type: cell-based; set-up: test concentration 10 uM, cell line HepG2-A16-CD81EGFP; details: human, HepG2-A16-CD81EGFP cells; read-out: INHIBITION
test readout: cytotoxicity at 10 µM (%)

- Cc1ccc(CN2CC[C@H]3[C@H]2CCN3S(=O)(=O)C2CC2)s1: 7.74
- CC(=O)N1CCC(C(=O)NCCc2c[nH]c3cc(C)ccc23)CC1: 18.1
- Cc1cc(C)c2nc(CN3CCC(C#N)CC3)cc(O)c2c1: 6.27
- Cn1ccnc1CN1CCN(c2ccc(C#N)cc2F)CC1: -2.06
- CCCC(=O)NCCc1nc(N(C)C)ncc1-c1ccncc1: 2.92
- O=C(c1ccc(-c2nc[nH]n2)cc1)N1CCOC(C(F)(F)F)C1 (stereo not given): -2.35
- COCCC1COC2(CCN(C(=O)c3cccn3C)CC2)C1 (stereo not given): -80.7
- Cc1cnn(CCNCc2ccc(C#N)cc2)c1: -10.7
- Cc1nc(N2CCC(O)(c3ccccc3)CC2)c2c(C)nn(C)c2n1: 1.22
- CCc1ccc(C2CC(=O)Nc3c2c(=O)[nH]n3C(C)C)cc1 (stereo not given): -6.87
- Cc1cc(C)c2nc(C)cc(C(=O)NCc3csc(N(C)C)n3)c2c1: 13.5
- COCc1cc(N(Cc2ccsc2)C2CC2)n2ncnc2n1: -3.75
- CCN(CC)CCN1CC[C@H]2OCC[C@@]2(C(=O)N2CCOCC2)C1: 4.64
- Cc1ccccc1CN(C)C(=O)c1cc(C2CCCN2C)ccn1 (stereo not given): -4.76
- Cc1nn(C)c(C)c1C1CCCN1C(=O)c1ccc(N(C)C)nc1 (stereo not given): -7.19

###

assay: Toxicity liver stage against HepG2, at 10uM; assay type: cell-based; set-up: test concentration 10 uM, cell line HepG2-A16-CD81EGFP; conditions: human, HepG2-A16-CD81EGFP cells; read-out: INHIBITION
test readout: cytotoxicity at 10 µM (%)

- Cc1ccc(N2CCCC(NCCS(C)(=O)=O)C2)nn1 (stereo unspecified): -5.26
- Cn1nc(C(=O)N2CCSCC2)cc1NC(=O)c1ccccc1: -13.9
- CC(=O)N1CCC(c2nc3ccc(-c4cccc(F)c4)cn3n2)CC1: 12.4
- O=C(CC1CCCC1)N[C@H]1CN(Cc2c[nH]cn2)C[C@@H]1C1CC1: -54.7
- CNC(=O)CCc1cc(C)nc(C2CCN(C3CCCCC3)CC2)c1: 4.54
- CC(C)(C)CC(=O)N1CSCC1C(=O)NC1=NCCS1 (stereo unspecified): 17.9
- Cc1ccc(C)c(-n2nnnc2SCN2CCCCC2=O)c1: -47.3
- Cc1ccc(C(=O)NC2CCCN(c3ncccn3)C2)cn1 (stereo unspecified): -7.08
- CCCN(C)S(=O)(=O)NC(=O)c1ccc(CC)o1: 20.5
- O=C(CCSc1ccc(F)cc1)N1CCN(c2cnccn2)CC1: -42.8
- O=c1[nH]cnc2[nH]c(N3CCCCC3)nc12: 3.03
- CSc1nccc(N2CCC(NCc3ccc4c(c3)OCO4)CC2)n1: -3.4
- COCCn1ccc(NC(=O)Nc2ccc(C)cc2)n1: 2.19
- CCCS(=O)(=O)N1CCN(CC(F)(F)F)CC1: -3.29
- Cc1cc(O)nc(C2CCN(C(=O)CO)CC2)n1: 0.01
- CN1CCCC1CCn1ccnc1-c1nc2ccccc2[nH]1 (stereo unspecified): 5.47

###

# Lookup of reported cytotoxicity at 10 µM keyed by entry
assay: Toxicity liver stage against HepG2, at 10uM; type: cell-based; parameters: test concentration 10 uM, cell line HepG2-A16-CD81EGFP; details: human, HepG2-A16-CD81EGFP cells; read-out: INHIBITION
test readout: cytotoxicity at 10 µM (%)

• Cc1cnn(Cc2ccc(NC(=O)N3CCCCC3CO)cc2)c1 (centres undefined) = 56.1
• COc1cccc(C(=O)NS(=O)(=O)c2cc(Cl)sc2Cl)c1OC(F)F = -0.268
• Cc1occc1C(=O)N1CCC2(CCN(Cc3ccccn3)C2=O)C1 (centres undefined) = -152
• COc1ccccc1C(C)(C)NCc1ccco1 = 5.95
• CC(C)(O)CCc1cccc(C(=O)N2CCC[C@H]2CN2CCCC2)c1 = -1.13
• CCC(C)(NCC(=O)N(c1ccccc1)C(C)C)c1nc(C)cs1 (centres undefined) = 10.9
• O=C(CC1CC1)N1CC[C@H]2[C@@H]1CCC(=O)N2Cc1ccncc1 = -5.15
• Cc1nn(C)c(N2CCOCC2)c1CNCc1cccnc1 = 7.11
• CN(C)C(=O)NCc1ncn2c1CN(Cc1ccco1)CCC2 = 8.22
• CN(C)c1nc(CNC(=O)Nc2cccc([S+](C)[O-])c2)cs1 (centres undefined) = -5.27
• COCC1CC2(CCN(c3ccc(C)nn3)CC2)CN1C(C)C (centres undefined) = -112
• CN(C)S(=O)(=O)c1ccc(=O)n(CC2CCCCO2)c1 (centres undefined) = -8.58
• CC(CN1CCOC1=O)NC(=O)c1ccccc1Oc1ccccc1 (centres undefined) = 1.2
• Cn1cc(CN2CCN(CC3(c4ccccc4)CC3)CC2)cn1 = 2.86
• c1cncc(CO[C@H]2CC[C@H]3[C@@H]2OCCN3C2CCOCC2)c1 = -14.4
• Cc1nc(C)n(CC2CCCN2CC(=O)N(C)Cc2ccc(C)o2)n1 (centres undefined) = 8.52
• NC(=O)c1ccc(S(=O)(=O)NC2CCN(Cc3ccccc3)C2=O)cc1 (centres undefined) = -9.96
• COc1cccc(OCCNCc2c(C)nn(C)c2N(C)C)c1 = 1.25
• Cn1nc(CN2CCOCC2)c2c1CN(C(=O)c1ccc[nH]1)C2 = 8.46

###

test: Toxicity liver stage against HepG2, at 10uM; format: cell-based; design: test concentration 10 uM, cell line HepG2-A16-CD81EGFP; settings: human, HepG2-A16-CD81EGFP cells; read-out: INHIBITION
Label satisfied when cytotoxicity at 10 µM >= -20%; otherwise not satisfied.

* CNC(=O)N1CC[C@@H]2CN(Cc3cccc(OC)c3)S(=O)(=O)[C@@H]2CC1 | not satisfied
* CC(=O)c1cc(CC(=O)NCc2c(F)cccc2F)cs1 | satisfied
* CC(NC(=O)c1cccnc1N(C)C)c1ccccc1Br (stereo not given) | satisfied
* CC(C)c1cccc(N2CCCC3(CCC(=O)N(C4CC4)C3)C2)n1 (stereo not given) | satisfied
* C1CC(CN2C[C@@H]3CC[C@H]2CN(Cc2noc(C4CCCC4)n2)C3)C1 | satisfied

###

assay: Toxicity liver stage against HepG2, at 10uM; format: cell-based; design: test concentration 10 uM, cell line HepG2-A16-CD81EGFP; details: human, HepG2-A16-CD81EGFP cells; read-out: INHIBITION
test readout: cytotoxicity at 10 µM (%)

- CCN(CCc1nccs1)C(=O)c1ccco1: 15.4
- Cc1cc(CN2CCN(C(=O)C(C)C)[C@@H]3CS(=O)(=O)C[C@@H]32)ccc1F: 3.41
- CCCOC(C)Cn1ccc2[nH]c(=O)c(C#N)cc2c1=O (stereo not given): 7.39
- CC(C)n1ccnc1C1CCCN(c2nc3ccccc3s2)C1 (stereo not given): 5.07
- Cn1ccc(N2CCCC(NC(=O)c3ccsc3)C2=O)n1 (stereo not given): -3

###

experiment: Toxicity liver stage against HepG2, at 10uM; type: cell-based; set-up: test concentration 10 uM, cell line HepG2-A16-CD81EGFP; conditions: human, HepG2-A16-CD81EGFP cells; read-out: INHIBITION
cytotoxicity at 10 µM overview
test readout: cytotoxicity at 10 µM (%)

- CN1CCC(N2CCN3C(=O)NC[C@H]3C2)CC1: 2.26
- Cc1nc(C)c(CNC(=O)N2CCc3ccccc3C2CO)s1 (configuration not stated): 23.7
- COc1cccc(N2CCC(CNc3cc(C)nc4ncnn34)C2)c1 (configuration not stated): 59.7
- CC(C)N1CCCC(C(=O)N2CCN(c3nsc4ccccc34)CC2)C1 (configuration not stated): 2.81
- Cc1noc(C)c1CNC(=O)Nc1ccc(N2CCSCC2)cc1: -1.61
- NCC1Cc2cc(-c3nccc(N4CCC(O)CC4)n3)cc(F)c2O1 (configuration not stated): 14.2
- CN(C)C(=O)CN1CCCCC1c1nc(N)ncc1-c1cccc(F)c1 (configuration not stated): -3.68
- CCC(CNC(=O)c1nc(=O)[nH][nH]1)Oc1cccc(F)c1 (configuration not stated): -6.76
- CC(=O)N1CCCC2(C1)CN(C(=O)c1ccncc1)CCO2 (configuration not stated): -78.7
- CSc1ccc(CN(C(=O)c2cc(=O)[nH]c(=O)[nH]2)C2CC2)cc1: -44.8
- CC(C)[C@H](NS(C)(=O)=O)C(=O)NCc1cc(-c2ccccc2)n[nH]1: -8.94
- c1coc(CN2CCOC3(COCCN(Cc4ccncc4)C3)C2)c1 (configuration not stated): 4.03
- O=C(NCc1ccccc1)N1CCn2c(Cn3cccn3)cnc2C1: -71
- COc1ccccc1C(=O)Nc1ccc(OC2CCN(C)CC2)cc1: -4.85
- CCOC(=O)NC(CNC(=O)c1cn(C)cn1)CC(C)C (configuration not stated): -5.35
- CC(C)NC(=O)N(C)C1CCN(c2ccccc2Cl)C1=O (configuration not stated): -4.56
- Cc1c(C)n(Cc2ccncc2)c2nc3c(c(N)c12)CCCCCC3: 9.18
